MEASUREMENT DESCRIPTION: physchem
ASSAY METRIC: pKa
Please give the numeric answer without any surrounding text.

I have this molecule here, Nc1c(Cl)cccc1Cl [2,6-Dichloroaniline] , and I need its recorded pKa.
0.482

====

MEASUREMENT DESCRIPTION: pK calculated from monosubstituted compounds assuming additivity of substituent effects
Kindly state ΔpK(1) Dichlorophenol for each of the entries shown.

Consider the compound shown here: Oc1c(Cl)cccc1Cl [2,6-Dichlorophenol] What is its recorded ΔpK(1) Dichlorophenol?
.27

Please give the measured ΔpK(1) Dichlorophenol for this compound: Oc1cc(Cl)ccc1Cl [2,5-Dichlorophenol]
.15

Give its ΔpK(1) Dichlorophenol value. Item: Oc1cc(Cl)cc(Cl)c1 [3,5-Dichlorophenol]
.07

Give the measured ΔpK(1) Dichlorophenol of Oc1cccc(Cl)c1Cl [2,3-Dichlorophenol] .
−0.05

Quick one: ΔpK(1) Dichlorophenol of Oc1ccc(Cl)cc1Cl [2,4-Dichlorophenol] ?
.06

ΔpK(1) Dichlorophenol for Oc1ccc(Cl)c(Cl)c1 [3,4-Dichlorophenol] ?
−.04

Ref: paper PMC5323086
